# mortality at 500 ppm per record follows
# System: twospotted spider mite
# protocolDetails: Foliar application, twospotted spider mite
# Assay type: in vivo
# studyConditions: Tetranychus urticae; TSM, foliar, 500 ppm, 48 hours; read-out: Foliar % Kill (ppm)
# Description: Foliar Application: The activity of some of the compounds of the invention against various test species selected from pea aphid (Acyrthosiphon pisum), twospotted spider mite (Tetranychus urticae), southern armyworm (Spodoptera eridania), Mexican bean beetle (Epilachna varivestis), and cabbage looper (Tricoplusia ni) was determined by foliar application of the test compound. […] Mortality was read approximately 48 hours after treatment.
Just the number in %, nothing appended.

compound="Cc1c(COC(=O)[C@H]2[C@@H](C=C(Br)Br)C2(C)C)cccc1-c1cccs1 (relative stereo) [i]" measured=90
compound="CC1(C)[C@H](C=C(Cl)Cl)[C@@H]1C(=O)OCc1cccc(-c2ccsc2)c1 (relative stereo) [d]" measured=100
compound="CC1(C)[C@H](C=C(Cl)Cl)[C@@H]1C(=O)OCc1cccc(-c2ccco2)c1 (relative stereo) [j]" measured=0
compound="Cc1c(COC(=O)[C@@H]2[C@H](C=C(Cl)Cl)C2(C)C)cccc1-c1cccs1 [h]" measured=100
compound="CC1(C)[C@H](C=C(Cl)Cl)[C@@H]1C(=O)OCc1cccc(-c2cccs2)c1 (relative stereo) [b]" measured=0

Prompt line: Give recorded mortality at 500 ppm. Cc1c(COC(=O)[C@H]2[C@@H](C=C(Cl)C(F)(F)F)C2(C)C)cccc1-c1cnccn1 (relative stereo) [p]
Response line: 100

Prompt line: Give recorded mortality at 500 ppm. Cc1c(COC(=O)[C@H]2[C@@H](C=C(Cl)C(F)(F)F)C2(C)C)cccc1-c1ccccn1 (relative stereo) [s]
Response line: 80
